- Test system: ATP;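 further: ATP exposure 15 min at 22 °C before imaging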
- experiment: switch fluorescence ratio, 500 uM ATP over buffer (Cy3 cluster intensity, sum of 5 cycles each) (fold (ratio)); higher = stronger signal-on switching upon ATP binding; sequences stand for … in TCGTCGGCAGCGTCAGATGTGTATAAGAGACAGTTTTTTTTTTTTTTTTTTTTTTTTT…TC
- experimental-conditions: aptamer strand: ATP DNA aptamer (quencher-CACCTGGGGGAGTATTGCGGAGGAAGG + anchor), 100 nM annealed; ATP concentration: 500 uM
Would you please tag the item label 1 when its switch fluorescence ratio is 1 or above, and label 0 when it is below?

Example results:
- record-sequence: "GCTGACAGCG"
  cat: "label 0"
- record-sequence: "TGGGCGAAGG"
  cat: "label 0"

Ask | Determine whether this sequence has switch fluorescence ratio no lower than 1: TGCGGAAGGC
Reply | label 1

---

Listing: switch fluorescence ratio of selected sequences
- Test system: ATP;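 further: ATP exposure 15 min at 22 °C before imaging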
- experiment: switch fluorescence ratio, 500 uM ATP over buffer (Cy3 cluster intensity, sum of 5 cycles each) (fold (ratio)); higher = stronger signal-on switching upon ATP binding; sequences stand for … in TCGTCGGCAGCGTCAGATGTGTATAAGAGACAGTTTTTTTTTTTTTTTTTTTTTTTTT…TC
- experimental-conditions: aptamer strand: ATP DNA aptamer (quencher-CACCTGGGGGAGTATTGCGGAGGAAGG + anchor), 100 nM annealed; ATP concentration: 500 uM
No unit in the answer, only the number.

// field: switch fluorescence ratio; key: ATCATTCGGT ; value = 0.996

---

Listing: switch fluorescence ratio of selected sequences
- Tested on: ATP;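 further: ATP exposure 15 min at 22 °C before imaging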
- experiment: switch fluorescence ratio, 500 uM ATP over buffer (Cy3 cluster intensity, sum of 5 cycles each) (fold (ratio)); higher = stronger signal-on switching upon ATP binding; sequences stand for … in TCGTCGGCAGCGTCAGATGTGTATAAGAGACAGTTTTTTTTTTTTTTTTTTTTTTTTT…TC
- experimental-conditions: aptamer strand: ATP DNA aptamer (quencher-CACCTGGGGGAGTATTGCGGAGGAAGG + anchor), 100 nM annealed; ATP concentration: 500 uM

Example cases with answers are listed next.
- record-sequence: "GAGTTAGTAG"
  readout-type: "switch fluorescence ratio"
  readout-value: 0.966
- record-sequence: "TTTATGCCGT"
  readout-type: "switch fluorescence ratio"
  readout-value: 0.951

// field: switch fluorescence ratio; key: AATGGTTATC ; value = 0.975

// field: switch fluorescence ratio; key: GTGTTATAAT ; value = 0.986

// field: switch fluorescence ratio; key: TGTCCATGGG ; value = 1.01

---

- Tested on: ATP;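 further: ATP exposure 15 min at 22 °C before imaging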
- experiment: switch fluorescence ratio, 500 uM ATP over buffer (Cy3 cluster intensity, sum of 5 cycles each) (fold (ratio)); higher = stronger signal-on switching upon ATP binding; sequences stand for … in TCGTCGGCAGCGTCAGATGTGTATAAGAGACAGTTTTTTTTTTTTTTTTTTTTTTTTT…TC
- experimental-conditions: aptamer strand: ATP DNA aptamer (quencher-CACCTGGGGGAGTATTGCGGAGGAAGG + anchor), 100 nM annealed; ATP concentration: 500 uM
Listing: switch fluorescence ratio of selected sequences
No unit in the answer, only the number.

Example cases with answers are listed next.
- record-sequence: "TGGGGGTAAA"
  switch fluorescence ratio: 1
- record-sequence: "AGGGATTGAT"
  switch fluorescence ratio: 1.01
- record-sequence: "GAATGGGTGA"
  switch fluorescence ratio: 0.983

For the sequence AGTATGGTGG , the measured switch fluorescence ratio on ATP was 0.998

For the sequence AGATTCTCGA , the measured switch fluorescence ratio on ATP was 0.998

---

- Tested on: ATP;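 further: ATP exposure 15 min at 22 °C before imaging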
- experiment: switch fluorescence ratio, 500 uM ATP over buffer (Cy3 cluster intensity, sum of 5 cycles each) (fold (ratio)); higher = stronger signal-on switching upon ATP binding; sequences stand for … in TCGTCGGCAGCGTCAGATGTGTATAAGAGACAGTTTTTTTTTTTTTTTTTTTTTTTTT…TC
- experimental-conditions: aptamer strand: ATP DNA aptamer (quencher-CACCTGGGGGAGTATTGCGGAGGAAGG + anchor), 100 nM annealed; ATP concentration: 500 uM
readout-type: switch fluorescence ratio
No unit in the answer, only the number.

Example cases with answers are listed next.
- record-sequence: "TGGTAGTCGT"
  readout-type: "switch fluorescence ratio"
  readout-value: 0.994
- record-sequence: "AAAATAATGG"
  readout-type: "switch fluorescence ratio"
  readout-value: 0.998
- record-sequence: "GCATGGAAGG"
  readout-type: "switch fluorescence ratio"
  readout-value: 1.01
- record-sequence: "TAAGGATATG"
  readout-type: "switch fluorescence ratio"
  readout-value: 1.01
- record-sequence: "AGCGAGGTCT"
  readout-type: "switch fluorescence ratio"
  readout-value: 0.977

// field: switch fluorescence ratio; key: GTGGGTCGTT ; value = 1

// field: switch fluorescence ratio; key: AAACTAGCGG ; value = 1.02

// field: switch fluorescence ratio; key: ACGGGTAGCA ; value = 0.999

// field: switch fluorescence ratio; key: GTTGAATGAC ; value = 1.04

// field: switch fluorescence ratio; key: GTATGAATCG ; value = 0.961

---

Listing: switch fluorescence ratio of selected sequences
- Test system: ATP;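 further: ATP exposure 15 min at 22 °C before imaging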
- experiment: switch fluorescence ratio, 500 uM ATP over buffer (Cy3 cluster intensity, sum of 5 cycles each) (fold (ratio)); higher = stronger signal-on switching upon ATP binding; sequences stand for … in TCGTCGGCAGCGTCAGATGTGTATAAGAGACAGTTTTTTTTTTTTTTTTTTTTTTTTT…TC
- experimental-conditions: aptamer strand: ATP DNA aptamer (quencher-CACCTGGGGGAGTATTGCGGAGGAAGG + anchor), 100 nM annealed; ATP concentration: 500 uM
No unit in the answer, only the number.

Example cases with answers are listed next.
- record-sequence: "TAATATGGAG"
  switch fluorescence ratio: 0.99
- record-sequence: "AAGAGAACTT"
  switch fluorescence ratio: 0.993
- record-sequence: "GTACTAGTAT"
  switch fluorescence ratio: 0.977

// field: switch fluorescence ratio; key: CAATGGCCTG ; value = 0.984

// field: switch fluorescence ratio; key: GGTTGGTTTT ; value = 0.992

// field: switch fluorescence ratio; key: ATTGGCTGTT ; value = 0.997

// field: switch fluorescence ratio; key: TTGGATTTTT ; value = 0.992

// field: switch fluorescence ratio; key: GGGGAATTTA ; value = 1

// field: switch fluorescence ratio; key: GGGAGCTACA ; value = 1.02

// field: switch fluorescence ratio; key: CTAACTGCAT ; value = 1.18

// field: switch fluorescence ratio; key: CGGGGCGCGG ; value = 0.977

// field: switch fluorescence ratio; key: ATCGGGCGGG ; value = 1.02

// field: switch fluorescence ratio; key: GGGGACGAAT ; value = 1

// field: switch fluorescence ratio; key: TTTCTTTATC ; value = 0.974

// field: switch fluorescence ratio; key: TGTTTCGTGG ; value = 0.971

// field: switch fluorescence ratio; key: GTGAGTACTT ; value = 1.03

// field: switch fluorescence ratio; key: GTATAAGAGC ; value = 0.985

// field: switch fluorescence ratio; key: AGCGTGATAC ; value = 4.4

// field: switch fluorescence ratio; key: TTACGGGGGG ; value = 1.02

// field: switch fluorescence ratio; key: AAGGACGGCC ; value = 0.998

---

- System: ATP;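 further: ATP exposure 15 min at 22 °C before imaging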
- experiment: switch fluorescence ratio, 500 uM ATP over buffer (Cy3 cluster intensity, sum of 5 cycles each) (fold (ratio)); higher = stronger signal-on switching upon ATP binding; sequences stand for … in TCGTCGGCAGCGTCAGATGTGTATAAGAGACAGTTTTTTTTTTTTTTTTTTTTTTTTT…TC
- experimental-conditions: aptamer strand: ATP DNA aptamer (quencher-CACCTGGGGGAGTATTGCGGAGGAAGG + anchor), 100 nM annealed; ATP concentration: 500 uM
readout-type: switch fluorescence ratio
No unit in the answer, only the number.

// field: switch fluorescence ratio; key: GATGGGAGGG ; value = 0.99

// field: switch fluorescence ratio; key: TTGCTATAGA ; value = 1.01

---

- Test system: ATP;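 further: ATP exposure 15 min at 22 °C before imaging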
- experiment: switch fluorescence ratio, 500 uM ATP over buffer (Cy3 cluster intensity, sum of 5 cycles each) (fold (ratio)); higher = stronger signal-on switching upon ATP binding; sequences stand for … in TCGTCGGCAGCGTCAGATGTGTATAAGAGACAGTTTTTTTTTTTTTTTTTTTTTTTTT…TC
- experimental-conditions: aptamer strand: ATP DNA aptamer (quencher-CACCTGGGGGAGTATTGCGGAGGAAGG + anchor), 100 nM annealed; ATP concentration: 500 uM
readout-type: switch fluorescence ratio

// field: switch fluorescence ratio; key: TCGTATTACA ; value = 1.01

// field: switch fluorescence ratio; key: ATGCTGGGGG ; value = 0.994

// field: switch fluorescence ratio; key: TTATAGTGTT ; value = 0.994
